target: UniProtKB P33261
Sequence (P33261 whole entry): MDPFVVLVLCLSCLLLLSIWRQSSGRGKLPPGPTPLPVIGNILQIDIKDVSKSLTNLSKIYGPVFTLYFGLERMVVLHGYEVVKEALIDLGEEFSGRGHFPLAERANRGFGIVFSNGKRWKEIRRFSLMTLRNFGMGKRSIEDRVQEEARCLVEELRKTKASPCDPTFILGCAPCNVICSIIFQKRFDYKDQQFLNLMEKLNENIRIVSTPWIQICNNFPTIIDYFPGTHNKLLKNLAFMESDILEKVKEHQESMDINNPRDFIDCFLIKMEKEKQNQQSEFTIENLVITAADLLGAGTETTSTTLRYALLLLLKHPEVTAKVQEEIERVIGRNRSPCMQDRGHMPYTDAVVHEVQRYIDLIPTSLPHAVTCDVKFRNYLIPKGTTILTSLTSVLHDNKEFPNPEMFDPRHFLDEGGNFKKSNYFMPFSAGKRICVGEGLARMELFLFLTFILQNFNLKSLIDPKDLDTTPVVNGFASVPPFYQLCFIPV
Catalogue of IC50 values

>>> print(df.to_string())
                               given_smiles       measured_on  assay_readout  recorded_value
0  C=CC(=O)Nc1cccc(C)c1Nc1ncc(OCc2c(F)c(OC)cc(OC)c2F)cn1  UniProtKB P33261           IC50          1.5 µM
1  C=CC(=O)N[C@H]1COC[C@H]1Nc1ncc(OCc2c(F)c(OC)cc(OC)c2F)cn1  UniProtKB P33261           IC50         19.8 µM

Here's the next entry for you.
query: Notebook: pull reported IC50 for UniProtKB P33261, entry C=CC(=O)Nc1cccc(C)c1Nc1ncc2cc(-c3c(Cl)c(OC)cc(OC)c3Cl)ccc2n1
result: 1.7 µM

From: ChEMBL document CHEMBL4017480
